Tested on: EKVX NSCLC
Assay: NCI tumour cell line growth inhibition, 48 h
readout: TGI

Q: Please tell me: TGI of `COc1ccc(/C(C)=C(\c2ccc(Cl)cc2)c2ccc(OCCN3CCCCC3)cc2)cc1` , system EKVX NSCLC?
Ans: 8.79 µM

Q: Lookup: TGI / EKVX NSCLC / `O=C1C(=O)c2cc([N+](=O)[O-])ccc2-c2ccc([N+](=O)[O-])cc21`
Ans: 3.94 µM

Q: Lookup: TGI / EKVX NSCLC / CCC[CH2][Sn]1([CH2]CCC)[O]CC(CN2CCCCC2)[O]1 (stereo unspecified)
Ans: 1.92 µM

---

Test system: UACC-62 melanoma
Assay: NCI tumour cell line growth inhibition, 48 h
Square brackets hold non-standard residues; d marks the D form. Peptide text beside a SMILES is read from it. * marks the point of attachment. Boc = CC(C)(C)OC(=O)*; OBn = c1ccc(CO*)cc1
readout: TGI

compound	studySystem	TGI
N#Cc1c(N)c2c(c(-c3ccccc3)c1-c1ccccc1)C(=O)N(N)C2=O	UACC-62 melanoma	> 100 µM
Cc1nnc2n1-c1ccccc1-c1[nH]c3ccccc3c1C2	UACC-62 melanoma	> 100 µM
C[C@@H](NC(=O)CNC(=O)OC(C)(C)C)C(=O)N[C@@H](Cc1ccccc1)C(=O)OCc1ccccc1 (Boc-Gly-[dA]-Phe-OBn)	UACC-62 melanoma	> 100 µM

Now for the compound whose TGI we want.
Q: Value lookup for TGI; key = `O=C1/C=C/[C@@H](O)[C@@H]2C[C@@H](O)C[C@H]2/C=C/CCC[C@H](CCOCc2ccccc2)O1`
Ans: 12.6 µM

---

Measured TGI values are reported for all entries that follow.
System: RXF 393 renal
Assay: NCI tumour cell line growth inhibition, 48 h

The examples below pair each entry with its known result.
molecule	studySystem	endpointValue
Nc1ccc(S(=O)(=O)c2ccc(N)cc2)cc1	RXF 393 renal	> 100 µM
c1ccc2c(c1)nnn2CN1CCOCC1	RXF 393 renal	> 100 µM
O=c1[nH]c(=O)n(COCCOCc2ccccc2)cc1Nc1ccccc1	RXF 393 renal	> 100 µM
CN(C)CCCNc1ccnc2cccc([N+](=O)[O-])c12	RXF 393 renal	61.1 µM
CC1CC/C(=C\c2ccc(F)cc2)C2=C1C(c1ccc(F)cc1)n1c(s/c(=C/c3cccc(Br)c3)c1=O)=N2 (centres undefined)	RXF 393 renal	> 100 µM
O=c1cc(-c2ccccc2)nc(-n2[nH]c3c(c2=O)CCCC3)[nH]1	RXF 393 renal	25.5 µM
CCCCC(CCCCCC(CCCC)C1NC(C)Cc2cc(OC)c(OC)cc21)C1NC(C)Cc2cc(OC)c(OC)cc21 (centres undefined)	RXF 393 renal	2.48 µM
CC1(C)OCC(C2OC3OC(C)(C)OC3C2N)O1 (centres undefined)	RXF 393 renal	> 100 µM

Continue with the molecule presented below.
Q: So what TGI did `CCn1c(O)c(C=Nc2ccccc2)s/c1=N/Nc1ncc(CC(=O)Nc2ccccc2C)s1` get with RXF 393 renal?
Ans: > 100 µM

---

Test system: OVCAR-4 ovarian
Experiment: NCI tumour cell line growth inhibition, 48 h
In this section, each of the molecules is paired with its reported TGI.

molecule	TGI
O=C(/C=C/c1ccc2ccccc2c1)NCc1ccc(C(=O)NCc2ccccc2)cc1	> 100 µM
C[C@H]1[C@H](N2CCCC2)O[Si](C(C)(C)C)(C(C)(C)C)[C@@H]1C	> 100 µM

Field: next molecule
Q: Fill in the blank: the reported TGI of CC(=O)OC1CN2CCC1CC2 (stereo not drawn) is ____.
Ans: > 100 µM
